# pIC50 values compiled below
Target: mitochondrial complex I (Mus musculus, UniProt P03888+Q91WD5+Q9DC70)
Sequence (Q91VD9 24-727): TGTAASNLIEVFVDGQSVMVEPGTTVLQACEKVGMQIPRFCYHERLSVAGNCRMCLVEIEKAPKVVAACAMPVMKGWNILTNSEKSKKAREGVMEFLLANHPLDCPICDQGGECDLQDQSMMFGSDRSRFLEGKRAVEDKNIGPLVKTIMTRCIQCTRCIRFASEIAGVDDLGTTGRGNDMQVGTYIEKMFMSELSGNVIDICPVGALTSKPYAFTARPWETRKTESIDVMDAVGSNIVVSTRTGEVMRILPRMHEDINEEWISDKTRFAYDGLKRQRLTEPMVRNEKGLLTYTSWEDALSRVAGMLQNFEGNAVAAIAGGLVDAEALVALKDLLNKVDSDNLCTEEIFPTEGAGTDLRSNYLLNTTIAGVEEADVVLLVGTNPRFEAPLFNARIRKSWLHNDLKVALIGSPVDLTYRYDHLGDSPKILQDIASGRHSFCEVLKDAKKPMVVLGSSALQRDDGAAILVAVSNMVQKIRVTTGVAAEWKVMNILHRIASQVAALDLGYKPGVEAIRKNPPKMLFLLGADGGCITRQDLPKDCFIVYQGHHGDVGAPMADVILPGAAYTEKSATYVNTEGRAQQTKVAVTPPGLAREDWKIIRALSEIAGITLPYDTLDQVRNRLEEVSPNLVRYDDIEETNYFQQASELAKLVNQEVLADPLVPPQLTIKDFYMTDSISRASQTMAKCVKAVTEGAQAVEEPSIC
Sequence (Q91WD5 34-463): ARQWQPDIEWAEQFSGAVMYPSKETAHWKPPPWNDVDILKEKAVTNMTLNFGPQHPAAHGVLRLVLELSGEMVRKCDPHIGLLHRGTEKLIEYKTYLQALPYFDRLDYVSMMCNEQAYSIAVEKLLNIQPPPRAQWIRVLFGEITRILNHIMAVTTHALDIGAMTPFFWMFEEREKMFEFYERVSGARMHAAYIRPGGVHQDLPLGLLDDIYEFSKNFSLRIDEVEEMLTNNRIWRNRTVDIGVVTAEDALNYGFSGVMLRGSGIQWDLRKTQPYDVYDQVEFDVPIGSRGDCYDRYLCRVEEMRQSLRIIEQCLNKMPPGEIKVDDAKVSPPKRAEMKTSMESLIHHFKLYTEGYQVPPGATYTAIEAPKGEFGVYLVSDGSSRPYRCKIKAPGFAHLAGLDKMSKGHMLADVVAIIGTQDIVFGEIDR
Sequence (P03888 whole entry): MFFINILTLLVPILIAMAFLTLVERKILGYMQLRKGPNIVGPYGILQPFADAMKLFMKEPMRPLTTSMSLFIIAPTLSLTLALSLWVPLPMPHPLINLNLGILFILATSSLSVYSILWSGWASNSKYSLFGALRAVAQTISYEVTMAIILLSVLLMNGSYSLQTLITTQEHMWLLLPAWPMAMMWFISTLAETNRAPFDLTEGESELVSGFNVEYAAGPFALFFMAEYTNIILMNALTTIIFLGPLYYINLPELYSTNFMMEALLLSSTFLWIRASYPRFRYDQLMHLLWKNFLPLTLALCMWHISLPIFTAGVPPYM
Sequence (Q9DC70 36-224): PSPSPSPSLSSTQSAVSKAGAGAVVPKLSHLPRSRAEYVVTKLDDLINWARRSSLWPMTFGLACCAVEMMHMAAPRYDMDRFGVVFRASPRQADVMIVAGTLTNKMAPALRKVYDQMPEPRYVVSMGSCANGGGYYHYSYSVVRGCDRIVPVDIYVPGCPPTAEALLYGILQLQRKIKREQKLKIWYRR
Sequence (Q91YT0 21-464, further chain): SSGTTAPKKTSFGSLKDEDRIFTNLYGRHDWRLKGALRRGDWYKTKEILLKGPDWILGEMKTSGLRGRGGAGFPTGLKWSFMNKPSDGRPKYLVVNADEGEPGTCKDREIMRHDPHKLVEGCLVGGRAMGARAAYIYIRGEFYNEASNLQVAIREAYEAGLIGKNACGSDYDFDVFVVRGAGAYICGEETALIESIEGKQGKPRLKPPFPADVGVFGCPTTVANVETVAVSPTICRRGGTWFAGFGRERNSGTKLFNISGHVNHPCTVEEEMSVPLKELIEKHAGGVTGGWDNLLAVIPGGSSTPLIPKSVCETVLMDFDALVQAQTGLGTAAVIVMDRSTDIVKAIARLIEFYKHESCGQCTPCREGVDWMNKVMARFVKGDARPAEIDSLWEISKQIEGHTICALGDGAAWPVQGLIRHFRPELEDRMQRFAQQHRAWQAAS
Assay: polarography: oxygen consumption in cells with complex I-specific substrates
FYI, pIC50 means -log10 of a concentration in mol per litre.

INSERT INTO measurements (compound, tested_system, measurement_label, reported_value) VALUES
  ('C=C(C)[C@H]1Cc2c(ccc3c2O[C@@H]2COc4cc(OC)c(OC)cc4[C@@H]2C3=O)O1 [rotenone]', 'mitochondrial complex I (Mus musculus, UniProt P03888+Q91WD5+Q9DC70)', 'pIC50', 7.70);

# evaluate next
Please fill in: pIC50 reported for C/C=C(\C)[C@H](O)[C@H](C)/C=C(C)/C=C/C/C(C)=C/Cc1nc(OC)c(OC)c(O)c1C [piericidin A] = 8.00
